Test system: OVCAR-4 ovarian
assay method text: NCI tumour cell line growth inhibition, 48 h
quantity name: TGI

Examples from the recorded data:
compound=CCCCC(=O)Nc1ccc2cc(C(=O)OC)c(Cl)nc2n1 quantity_name=TGI obs_value="> 100 µM"
compound="Cc1cc(-c2ccc(C3C(C#N)=C(N)Oc4c3c(=O)oc3ccccc43)cc2)cnc1F (centres undefined)" quantity_name=TGI obs_value="> 100 µM"
compound=Cc1ccc(S(=O)(=O)/N=C(\NO)Nc2ccc(Cl)c(Cl)c2)cc1 quantity_name=TGI obs_value="21.8 µM"

We now examine a further compound.
GET /values?readout=TGI&item= c1ccc(-c2cn3nc(N4CCOCC4)sc3n2)cc1
> 100 µM

* * *

Tested on: 786-0 renal
assay method text: NCI tumour cell line growth inhibition, 48 h
Measured TGI, listed per entry for reference.
A number alone suffices; assume µM.

compound=Cc1cnc(NC2CCOCC2)nc1-n1cnc(C(=O)N[C@H](CN)c2cc(F)cc(Cl)c2)c1 quantity_name=TGI obs_value=20
compound=Nc1cc2ccccc2c(O)c1O quantity_name=TGI obs_value=3.28
compound=CN1CCN(Cc2ccc(NC(=O)c3cncc(C#Cc4cnc5ccc(Cl)nn45)c3)cc2C(F)(F)F)CC1 quantity_name=TGI obs_value=1.85
compound=O=c1oc2ccccc2c(O)c1/C=N\c1nc(-c2ccc(O)c(O)c2)cs1 quantity_name=TGI obs_value=10.2
compound=Cc1ccc(/C(=C/C=C(/C#N)C(N)=O)Sc2ncnn2C)cc1 quantity_name=TGI obs_value=10.9
compound=NC(=O)c1ccc(NCC2=CC(=O)C=CC2=O)cc1 quantity_name=TGI obs_value=38.5
compound="CC(C)=C[C@@H]1C[C@H](C)[C@H]2CC[C@H](C)c3c(O)c(OC4OCC(O)C(O)C4O)c(C)c1c32 (stereo not given in full)" quantity_name=TGI obs_value=34.8
compound=COc1ccc2c(c1)C(=O)c1c-2c(=O)n(CCCCCCC(=O)NO)c2ccccc12 quantity_name=TGI obs_value=11.5

From here, focus on the item given below.
Can you share its TGI? I mean this compound: S=C1Cc2cc3ccccc3nc2-c2ccccc2N1
28.4

* * *

Test system: ACHN renal
assay method text: NCI tumour cell line growth inhibition, 48 h
Reported TGI values are given for each entry in this list.

compound="COc1ccc2nc3n(c2c1)C(c1c(F)cccc1Cl)SC3 (stereo unspecified)" quantity_name=TGI obs_value="> 100 µM"
compound=CCOC(=O)C#Cc1c(C(=O)OCC)nnn1Cc1ccc(C(F)(F)F)cc1 quantity_name=TGI obs_value="3.56 µM"
compound=O=c1oc2ccccc2c(O)c1/C=N\c1nc(-c2ccc(O)c(O)c2)cs1 quantity_name=TGI obs_value="9.77 µM"
compound=COC(=O)CC(=O)OC quantity_name=TGI obs_value="> 100 µM"
compound=CS(=O)(=O)OCCn1c2c(c3c(O)cccc31)C(=O)c1ccccc1-2 quantity_name=TGI obs_value="> 100 µM"

Now for the compound whose TGI we want.
Tell me the measured TGI of C=C(C)[C@@H]1CC[C@]2(C)[C@H](CC[C@@H]3[C@@H]([C@@](C)(O)CCC=C(C)C)CC[C@]32C)[C@@]1(C)CCC(=O)N1CCN(C)CC1 , please.
26.5 µM

* * *

Measured TGI accompanies every entry in the list below.
Tested on: NCI-H23 lung
assay method text: NCI tumour cell line growth inhibition, 48 h
Report the value in µM with no unit label.

// worked examples, TGI included
smiles_code=CNC[C@@H](NC(=O)c1ccc(-c2nc([C@H]3CC[C@H](O)[C@@H](F)C3)cnc2N)cc1F)c1cc(F)cc(Br)c1 quantity_name=TGI obs_value=35.3
smiles_code=Clc1ccc(-c2nc(-c3ccccc3)cn3ccnc23)cc1 quantity_name=TGI obs_value=36.4
smiles_code=O=C1C=C(Nc2cccnc2)c2ccccc2C1=O quantity_name=TGI obs_value=9.41
smiles_code=N=C(N)c1ccc(-c2ccc(-c3ccc(F)cc3)s2)nc1 quantity_name=TGI obs_value=8.99
smiles_code=Cc1ccc2cc3cccc(C(=O)NCCN(C)C)c3nc2c1 quantity_name=TGI obs_value=3.4

So what does the record say about TGI for Cc1nc2c(nc1C)C(=O)C1=C(C2=O)C2C=CC1CC2 ?
19.6

Value source: PubChem BioAssay (NCI)
